target: Human ALPPL2 (Homo sapiens, UniProt P10696); assay: BLI binding kinetics, human ALPPL2 immobilised on AR2G sensors (KD / KD apparent); settings: VHH domains
Sequence (P10696 with tags, fused parts or gaps): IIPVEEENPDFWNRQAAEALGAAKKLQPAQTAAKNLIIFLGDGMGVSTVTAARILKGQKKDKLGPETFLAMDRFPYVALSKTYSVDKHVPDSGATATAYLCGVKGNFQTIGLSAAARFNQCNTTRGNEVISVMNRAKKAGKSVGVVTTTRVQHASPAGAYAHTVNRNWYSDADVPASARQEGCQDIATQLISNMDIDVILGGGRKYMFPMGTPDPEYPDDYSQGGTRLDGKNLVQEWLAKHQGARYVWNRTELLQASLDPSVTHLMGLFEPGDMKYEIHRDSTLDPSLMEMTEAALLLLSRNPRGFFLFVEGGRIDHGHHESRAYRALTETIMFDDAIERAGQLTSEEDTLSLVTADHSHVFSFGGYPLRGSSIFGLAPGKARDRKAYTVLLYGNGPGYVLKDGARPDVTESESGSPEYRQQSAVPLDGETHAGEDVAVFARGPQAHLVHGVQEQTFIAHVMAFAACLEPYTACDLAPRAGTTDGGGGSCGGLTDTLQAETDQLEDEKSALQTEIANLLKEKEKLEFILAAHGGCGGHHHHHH
parameter.measured: hALPPL2 Ka (M⁻¹ s⁻¹)

(A) F05: ALPP/ALPPL2 targeting VHH domain, SEQ ID NO: 34 (protein) VHH: QVQLVESGGGLVQAGGSLRLSCAASGRAFGDYNIGWFRQAPGKEREFVARRTWDGSSTRYDDSVKGRFTVSIDNAKNTAYLQMNSLKTEDTAVYYCAAGRYSRVRGWEYDYWGQGTQVTVSS
(B) E06: ALPP/ALPPL2 targeting VHH domain, SEQ ID NO: 30 (protein) VHH: QVHLVESGGGLVQAGGSLRLSCAASRRSFSEYAMGWFRQAPGKEREFVAAIGWSGVIEYADSVKGRFTISRDNAKDTVYLQMNSLKPEDTAVYYCAAGLGIRVVSQTPAYWGQGTQVTVSS
[ask] Pick one: A or B . Which one has the lower reported hALPPL2 Ka? // return label of chosen record
[reply] B
(B: 1050000 M⁻¹ s⁻¹, A: 3740000 M⁻¹ s⁻¹)
